# Target System: Fuc(a1-2)Gal(b1-4)[Fuc(a1-3)]GlcNAc(b1-3)GalNAc
# Assay Info: glycan array binding signal (z-score within array); higher = stronger binding
# Study Conditions: glycan notation: IUPAC condensed, linker removed
The full list was thinned out, with the strongest signals kept by preference.
Here the recorded glycan array binding signal (z-score) is given for each entry.
Measured Quantity: glycan array binding signal (z-score)

* LecRKVI.2 (protein) RTTTNFAFRGFNGNQSKIRIEGAAMIKPDGLLRLTDRKSNVTGTAFYHKPVRLLNRNSTNVTIRSFSTSFVFVIIPSSSSNKGFGFTFTLSPTPYRLNAGSAQYLGVFNKENNGDPRNHVFAVEFDTVQGSRDDNTDRIGNDIGLNYNSRTSDLQEPVVYYNNDDHNKKEDFQLESGNPIQALLEYDGATQMLNVTVYPARLGFKPTKPLISQHVPKLLEIVQEEMYVGFTASTGKGQSSAHYVMGWSFSSGGERPIADVLILSELPPPPPNKAKKEGLNS | 4.76
* RsaA-N-term (Caulobacter crescentus), P35828 (protein) MAYTTAQLVTAYTNANLGKAPDAATTLTLDAYATQTQTGGLSDAAALTNTLKLVNSTTAVAIQTYQFFTGVAPSAAGLDFLVDSTTNTNDLNDAYYSKFAQENRFINFSINLATGAGAGATAFAAAYTGVSYAQTVATAYDKIIGNAVATAAGVDVAAAVAFLSRQANIDYLTAFVRANTPFTAAADIDLAVKAALIGTILNAATVSGIGGYATATAAMINDLSDGALSTDNAAGVNLFTAYPSSGVSGSTLSLTTGTDTLTGTANNDTFVAGEVAGDGSGWSHPQFEKGG | -0.298
